test_target: UniProt O14684
Sequence (O14684 whole entry): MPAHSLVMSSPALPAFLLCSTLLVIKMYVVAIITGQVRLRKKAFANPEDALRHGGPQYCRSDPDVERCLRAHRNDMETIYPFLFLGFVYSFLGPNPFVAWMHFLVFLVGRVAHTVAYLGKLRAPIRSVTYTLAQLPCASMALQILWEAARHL
procedure_summary: Inhibition of mPGES-1 in interleukin-1 beta-stimulated human A549 cells microsomal membranes assessed as reduction in conversion of PGH2 to PGE2 pre-incubated for 15 mins followed by PGH2 substrate addition measured after 1 min by RP-HPLC method
measurement_name: IC50 (µM)

A = COc1cc(-c2cc(=O)c3c(O)c(C/C=C(\C)CCC=C(C)C)c(O)cc3o2)ccc1O
B = COc1cc(O)cc(CCc2ccc(OC)c(O)c2CC=C(C)C)c1
Lab log: flag the item ( A or B ) with the smaller IC50 figure. State the label of the item chosen.
A

Source listed as ChEMBL document CHEMBL4033612.
